The reported numbers originate from patent US4943570A.

- protocolNotes: Acute toxicity in mice (Litchfield and Wilcoxon)
- Assay type: in vivo
- runParameters: mouse, in vivo, po, administered orally; male
observationType: LD50 (mg/kg)
Give the number; mg/kg is assumed, so skip it.

These recorded examples may help you get a feel for the data.
| compound | numericValue |
| --- | --- |
| O=S1(=O)c2nc3ccccc3n2CCN1CCCN1CCOCC1 | 6400 |
| O=S(=O)(NCCCN1CCOCC1)c1nc2ccccc2[nH]1 | 6400 |
| CCN(CC)S(=O)(=O)c1nc2ccc([N+](=O)[O-])cc2n1CC | 6400 |

Problem: Could you tell me which LD50 is on file for CCN(CC)CCCC(C)NS(=O)(=O)c1nc2cc(Cl)ccc2[nH]1 (stereo not drawn) ?
Solution: 2000

Problem: Now give it for O=S(=O)(Nc1ccc(Cl)cc1)c1nc2cc(Cl)ccc2[nH]1 too.
Solution: 2000

---

List of LD50 values.
- protocolNotes: Acute toxicity in mice (Litchfield and Wilcoxon)
- Assay type: in vivo
- runParameters: mouse, in vivo, po, administered orally; female

| compound | LD50 |
| --- | --- |
| CCCCN1CCn2c(nc3cc([N+](=O)[O-])ccc32)S1(=O)=O [Example 133] | > 3200 mg/kg |

Problem: Could you tell me which LD50 is on file for O=S(=O)(Nc1ccc(Cl)cc1)c1nc2cc(Cl)ccc2[nH]1 [Example 16] ?
Solution: 1500 mg/kg

Problem: Now give it for COc1ccc(CCN2CCn3c(nc4ccccc43)S2(=O)=O)cc1OC [Example 99] too.
Solution: > 3200 mg/kg

Problem: Now give it for O=S(=O)(NCc1ccccn1)c1nc2ccccc2[nH]1 [Example 31] too.
Solution: > 6400 mg/kg

Problem: Now give it for CCN(CC)CCCC(C)NS(=O)(=O)c1nc2cc(Cl)ccc2[nH]1 (stereo not drawn) [Example 18] too.
Solution: 4000 mg/kg

Problem: Now give it for O=[N+]([O-])c1ccc2[nH]c(S(=O)(=O)NCCCN3CCOCC3)nc2c1 [Example 38] too.
Solution: > 6400 mg/kg

---

- protocolNotes: Acute toxicity in mice (Litchfield and Wilcoxon)
- Type: in vivo
- runParameters: mouse, in vivo, po, administered orally; female
List of LD50 values.
Give the number; mg/kg is assumed, so skip it.

These recorded examples may help you get a feel for the data.
| molecule | observationType | numericValue |
| --- | --- | --- |
| CCN(CC)S(=O)(=O)c1nc2ccc([N+](=O)[O-])cc2n1CC [Example 71] | LD50 | 6400 |
| O=S(=O)(NCCCN1CCOCC1)c1nc2ccccc2[nH]1 [Example 8] | LD50 | 6400 |

Problem: Could you tell me which LD50 is on file for O=S(=O)(NCCN1CCOCC1)c1nc2ccccc2[nH]1 [Example 6] ?
Solution: 2600

Problem: Now give it for O=S1(=O)c2nc3ccccc3n2CCN1CCCN1CCOCC1 [Example 92] too.
Solution: 6400

---

- protocolNotes: Acute toxicity in mice (Litchfield and Wilcoxon)
- Type: in vivo
- runParameters: mouse, in vivo, po, administered orally; male
- Protocol: Method of Litchfield and Wilcoxon (J. T. Litchfield and E. J. Wilcoxon: J. Pharmacol. Exp. Therap., 96, 19-113 (1949)). The product is administered orally as a suspension in gum arabic at a concentration of 5% in double-distilled water. The volume administered is 10 - ml/kg. The 50% lethal dose (LD50) is calculated by the method cited.
observationType: LD50

These recorded examples may help you get a feel for the data.
| compound | result |
| --- | --- |
| CCNS(=O)(=O)c1nc2c([N+](=O)[O-])cccc2[nH]1 | > 1600 mg/kg |
| O=S(=O)(NCCN1CCOCC1)c1nc2ccccc2[nH]1 | 3300 mg/kg |
| NS(=O)(=O)c1nc2cc([N+](=O)[O-])ccc2[nH]1 [Example 34, 5-Nitro-1H-benzimidazole-2-sulfonamide] | > 6400 mg/kg |
| CCCCN1CCn2c(nc3ccc([N+](=O)[O-])cc32)S1(=O)=O | > 3200 mg/kg |

Problem: Could you tell me which LD50 is on file for CCN1C(c2ccc([N+](=O)[O-])cc2)=Cn2c(nc3ccc([N+](=O)[O-])cc32)S1(=O)=O ?
Solution: > 6400 mg/kg

Problem: Now give it for COc1ccc(CCN2CCn3c(nc4ccccc43)S2(=O)=O)cc1OC too.
Solution: > 3200 mg/kg

Problem: Now give it for CCCCN1CCn2c(nc3cc([N+](=O)[O-])ccc32)S1(=O)=O too.
Solution: > 3200 mg/kg

---

- protocolNotes: Acute toxicity in mice (Litchfield and Wilcoxon)
- Assay type: in vivo
- runParameters: mouse, in vivo, po, administered orally; male
observationType: LD50

| smilesEntry | LD50 |
| --- | --- |
| O=[N+]([O-])c1ccc2[nH]c(S(=O)(=O)NCCCN3CCOCC3)nc2c1 | > 6400 mg/kg |
| O=S(=O)(NCc1ccccn1)c1nc2ccccc2[nH]1 | > 6400 mg/kg |
| CCN1CCn2c(nc3ccc([N+](=O)[O-])cc32)S1(=O)=O | > 6400 mg/kg |

Kindly review the next molecule as well.
Problem: Could you tell me which LD50 is on file for CCN1CCn2c(nc3cc([N+](=O)[O-])ccc32)S1(=O)=O ?
Solution: > 2200 mg/kg

---

- protocolNotes: Acute toxicity in mice (Litchfield and Wilcoxon)
- Assay type: in vivo
- runParameters: mouse, in vivo, po, administered orally; female
observationType: LD50

These recorded examples may help you get a feel for the data.
| compound | LD50 |
| --- | --- |
| CCN1CCn2c(nc3cc([N+](=O)[O-])ccc32)S1(=O)=O [Example 128] | > 3200 mg/kg |
| NS(=O)(=O)c1nc2cc([N+](=O)[O-])ccc2[nH]1 [Example 34, 5-Nitro-1H-benzimidazole-2-sulfonamide] | > 6400 mg/kg |
| CCN1CCn2c(nc3ccc([N+](=O)[O-])cc32)S1(=O)=O [Example 127] | > 6400 mg/kg |
| CCNS(=O)(=O)c1nc2c([N+](=O)[O-])cccc2[nH]1 [Example 21] | > 1600 mg/kg |

Kindly review the next compound as well.
Problem: Could you tell me which LD50 is on file for CCCCN1CCn2c(nc3ccc([N+](=O)[O-])cc32)S1(=O)=O [Example 134] ?
Solution: > 3200 mg/kg
